# Tested on: MV4-11
# measurement_protocol: cell viability (% survival relative to DMSO control, bortezomib = 0%); higher = less cytotoxic
# run_conditions: 1 nM; 72 h
metric: cell viability (%)
Numbers only, in %.

compound | cell viability (%)
O=c1cc(-c2ccccc2)oc2cc(O)c(O)c(O)c12 | 97.8
CCCCC/C=C\C/C=C\C/C=C\C/C=C\CCCCN1C(=O)C=CC1=O [N-Arachidonylmaleimide] | 82.1

I would be grateful if you could provide cell viability for each of the following entries.
1. Cc1cn([C@H]2C[C@H](O)[C@@H](COP(=O)(O)OP(=O)(O)O)O2)c(=O)[nH]c1=O [Thymidine diphosphate]
2. C=C(C)[C@H]1Cc2c(ccc3c2O[C@@H]2COc4cc(OC)c(OC)cc4[C@@H]2C3=O)O1

Out:
95.7
97.2
